Tested on: SN12C
procedure summary: NCI tumour cell line growth inhibition, 48 h
Active and inactive are the calls of the source. No stated cut-off is given here; in the data, active = GI50 up to about 1.1 µM and inactive = higher.
value kind: GI50

| molecule | endpoint value |
| --- | --- |
| NCCC1([N+](=O)[O-])CCNCC1 | > 100 µM (inactive) |
| CC(C)[C@@H]1CC[C@@H](C)C[C@H]1OC(=O)/C=C1/C2C=CC(O2)C1C(=O)O[C@@H]1C[C@H](C)CC[C@H]1C(C)C (stereo partly drawn) | > 100 µM (inactive) |
| NC(=S)N/N=C1\C(=O)N(CCc2ccccc2)C(=O)C1C(=O)NCCc1ccccc1 (stereo not drawn) | > 100 µM (inactive) |

----------
Tested on: MCF7
procedure summary: NCI tumour cell line growth inhibition, 48 h
Active and inactive are the calls of the source. No stated cut-off is given here; in the data, active = GI50 up to about 1.1 µM and inactive = higher.
Possible outcomes: t (active), f (inactive)

| compound | target of assay | discrete label |
| --- | --- | --- |
| CC(NC(=O)C(NC(=O)C(NC(=O)C(F)(F)F)C(C)C)C(C)C)C(=O)Oc1c(Cl)c(Cl)c(Cl)c(Cl)c1Cl (configuration not stated) | MCF7 | f |
| CO/C(=N\N=C\c1cccc(C(F)(F)F)c1)c1ccncc1 | MCF7 | f |
| CC(C)(C)C(=O)CP(=O)(O)O | MCF7 | f |
| CN1C(=O)C2CCCC(=O)N2c2cccnc21 (configuration not stated) | MCF7 | f |
| Cc1ccc(-c2nc(N/N=C/C=C/c3ccccc3)c3ccccc3n2)cc1 | MCF7 | f |
| COc1cc2c(cc1C)NC(=O)/C2=C/c1c(Cl)[nH]c2cc(C)c(OC)cc12 | MCF7 | f |
| COC(=O)NNC(=O)OC.COC(=O)Nc1ccccc1NC(=O)OC.COC(=O)Oc1nn(C(=O)OC)c(=O)c2ccccc12 | MCF7 | f |
| O=C(CCCC(=O)N1CC(CCl)c2ccc([N+](=O)[O-])cc21)N1CC(CCl)c2ccc([N+](=O)[O-])cc21 (configuration not stated) | MCF7 | f |
| NS(=O)(=O)c1ccc(CNc2nc(-c3cccs3)nc3ccc(I)cc23)cc1 | MCF7 | t |
| CC(C)=C[C@@H]1O[C@H](O)[C@@H]([C@H]2CC[C@@]3(C)[C@@H]4CC[C@H]5C(C)(C)C(=O)CC[C@@]56C[C@@]46CC[C@]23C)[C@@H]1O | MCF7 | f |
| COC(=O)C(/C(=N/N)C(=O)Nc1cccc(O)c1)c1nc2ccccc2nc1O (configuration not stated) | MCF7 | f |
| Cc1nn(C(=O)c2ccc(Cl)cc2)c2c1C(c1ccc([N+](=O)[O-])cc1)SC(=N)N2 (configuration not stated) | MCF7 | f |
| OC1(c2ccc(Cl)cc2)c2c(c3ccccc3c3ccccc23)C2=NCCN21 (configuration not stated) | MCF7 | f |
| CCCC1C(CC)C(NC)C(C#N)(C#N)C1(C#N)C#N (configuration not stated) | MCF7 | f |
| Cc1ccc(SCC(OCn2cnc3c(Cl)nc(N)nc32)[C@H](C)F)cc1 (some centres not stated) | MCF7 | f |
| COc1ccc2c(c1)/C(=C\c1cccc(/C=C3/C(=O)Nc4ccc(OC)cc43)n1)C(=O)N2 | MCF7 | t |
| COc1ccc(CCNC(=O)CCc2ccccc2CO)cc1OC | MCF7 | f |
| OCCCCCCCCCCCOc1ccc(C2OCC3(CC=CCC3)CO2)cc1 (configuration not stated) | MCF7 | f |
| C=CCN(c1cc(O)c2c(c(C)cn2S(=O)(=O)c2ccccc2)c1[N+](=O)[O-])S(C)(=O)=O | MCF7 | f |
| COC(=O)/C=C/c1ccc(OP(=O)(O)O)c(OC)c1 | MCF7 | f |
| CC(C)[C@@H]1CC[C@@H](C)C[C@H]1OC(=O)/C=C1/C2C=CC(O2)C1C(=O)O[C@@H]1C[C@H](C)CC[C@H]1C(C)C (some centres not stated) | MCF7 | f |
| O=C1C([P+](c2ccccc2)(c2ccccc2)c2ccccc2)=C([O-])C(=Cc2ccc(Cl)c(Cl)c2)C([O-])=C1[P+](c1ccccc1)(c1ccccc1)c1ccccc1 | MCF7 | f |
| Cc1c(NC(=O)c2cc([N+](=O)[O-])cc([N+](=O)[O-])c2)c(=O)n(-c2ccccc2)n1C | MCF7 | f |
| O=[N+]([O-])c1ccc(-c2nc3cc(Cl)ccc3[nH]2)cc1 | MCF7 | f |
| Clc1ccc2oc(CCC3CCCCC3)nc2c1 | MCF7 | f |
| O/N=C1/Nc2cc(Cl)ccc2C(=S)N2CSCC12 (configuration not stated) | MCF7 | f |
| Cc1ccc(-c2c3nc(c(-c4ccc(C)cc4)c4ccc([nH]4)c(-c4ccc(OCC5COC(C)(C)O5)cc4)c4nc(c(-c5ccc(C)cc5)c5ccc2[nH]5)C=C4)C=C3)cc1 (configuration not stated) | MCF7 | f |
| Nc1nncc2[nH]cnc12 | MCF7 | f |
| Cc1cc(-c2nc3c(O)cccc3s2)ccc1N | MCF7 | f |
| COc1ccc(C(SCCO)(c2ccccc2)c2ccccc2)cc1 | MCF7 | f |
| COc1ccc2[nH]c3c(C)c4cc[n+](C)cc4c(C)c3c2c1 | MCF7 | f |
| O=[N+]([O-])c1ccc(C(=S)Nc2ccccc2)o1 | MCF7 | f |
